assay target: T1, αvβ3 integrin on cells (U87MG glioblastoma cells; K562-αvβ3 cells) (UniProt P06756 31-1048; P05106 27-788)
T1 construct: whole, on cells; also called cell surface αvβ3 integrin
T1 sequence (P06756 31-1048, chain 1 of 2): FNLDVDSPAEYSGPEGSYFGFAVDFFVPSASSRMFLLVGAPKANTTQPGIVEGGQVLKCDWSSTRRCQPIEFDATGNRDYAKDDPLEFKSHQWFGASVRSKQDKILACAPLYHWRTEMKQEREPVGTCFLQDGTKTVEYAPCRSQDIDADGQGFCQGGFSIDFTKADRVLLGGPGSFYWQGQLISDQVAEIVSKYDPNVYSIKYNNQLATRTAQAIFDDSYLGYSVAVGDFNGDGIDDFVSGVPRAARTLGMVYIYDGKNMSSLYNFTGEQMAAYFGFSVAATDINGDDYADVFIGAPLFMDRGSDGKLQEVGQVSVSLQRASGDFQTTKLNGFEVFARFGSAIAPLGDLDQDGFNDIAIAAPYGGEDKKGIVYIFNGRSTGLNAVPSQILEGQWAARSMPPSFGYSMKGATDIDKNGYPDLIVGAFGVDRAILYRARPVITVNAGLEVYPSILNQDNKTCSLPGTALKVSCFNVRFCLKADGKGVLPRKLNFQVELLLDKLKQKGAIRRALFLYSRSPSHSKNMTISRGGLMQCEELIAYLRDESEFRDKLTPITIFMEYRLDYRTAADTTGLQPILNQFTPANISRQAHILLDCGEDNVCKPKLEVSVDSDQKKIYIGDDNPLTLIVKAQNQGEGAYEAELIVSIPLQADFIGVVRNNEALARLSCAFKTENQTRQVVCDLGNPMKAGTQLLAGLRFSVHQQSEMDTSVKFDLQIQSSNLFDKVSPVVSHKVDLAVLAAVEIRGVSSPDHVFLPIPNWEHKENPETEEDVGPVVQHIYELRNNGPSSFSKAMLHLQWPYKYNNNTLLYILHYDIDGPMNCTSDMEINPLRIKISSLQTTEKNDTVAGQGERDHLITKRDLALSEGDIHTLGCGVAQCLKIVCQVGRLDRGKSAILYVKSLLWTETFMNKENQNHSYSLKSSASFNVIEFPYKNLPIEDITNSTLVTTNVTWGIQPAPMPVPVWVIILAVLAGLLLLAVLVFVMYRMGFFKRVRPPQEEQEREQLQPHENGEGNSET
T1 sequence (P05106 27-788, chain 2 of 2): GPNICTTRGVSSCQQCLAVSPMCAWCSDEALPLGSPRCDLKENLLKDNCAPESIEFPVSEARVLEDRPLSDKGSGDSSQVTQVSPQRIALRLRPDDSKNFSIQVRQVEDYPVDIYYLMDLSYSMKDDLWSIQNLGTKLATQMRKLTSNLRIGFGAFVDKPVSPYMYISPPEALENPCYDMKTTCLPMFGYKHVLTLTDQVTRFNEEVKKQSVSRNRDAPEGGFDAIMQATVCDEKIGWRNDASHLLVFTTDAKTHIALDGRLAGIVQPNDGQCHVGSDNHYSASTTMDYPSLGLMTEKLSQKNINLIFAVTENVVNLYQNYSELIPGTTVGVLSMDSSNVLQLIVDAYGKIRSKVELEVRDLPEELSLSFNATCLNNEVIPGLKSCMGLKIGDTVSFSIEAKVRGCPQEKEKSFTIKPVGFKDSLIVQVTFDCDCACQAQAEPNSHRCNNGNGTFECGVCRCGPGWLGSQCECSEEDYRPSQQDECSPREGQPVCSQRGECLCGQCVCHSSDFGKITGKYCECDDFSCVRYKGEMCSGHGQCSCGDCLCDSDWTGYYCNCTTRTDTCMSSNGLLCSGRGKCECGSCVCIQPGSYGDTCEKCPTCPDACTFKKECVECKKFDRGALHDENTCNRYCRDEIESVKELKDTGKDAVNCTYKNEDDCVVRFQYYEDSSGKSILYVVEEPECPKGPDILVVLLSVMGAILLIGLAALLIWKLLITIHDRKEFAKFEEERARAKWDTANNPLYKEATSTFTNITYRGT
assay procedure: competition with ^125I-echistatin on U87MG cells
observation type: pIC50
// pIC50 here means minus log10 of the molar concentration (mol/L)

Incoming: Need pIC50 of GCPQGRGDWAPTSCSQDSDCRAGCVCGPNGFCG (also called knottin peptide 2.5D; RGD-miniprotein 2.5D) [Miniprotein 2.5D (synthetic, soluble)] , thanks.
Outgoing: 7.72
